So I've got a bunch of compounds here, and I need their Activity values.
species on record: Rattus norvegicus; experiment: Inhibition of rat recombinant geranylgeranyltransferase type I expressed in Escherichia coli assessed as residual enzyme activity for geranylgeranylation of K-Ras4B at 50 uM incubated for 30 mins in presence of [3H]GGPP by scintillation counting assay relative to control
Numbers only, in %.

# count of solved cases: 6
INSERT INTO measurements (smiles_repr, readout_label, numeric_value) VALUES
  ('CCCCCCS[C@@H]1C[C@@H](c2ccc(C)cc2)N(S(=O)(=O)c2ccccc2)C[C@H]1C(=O)O', 'Activity', 81.2),
  ('Cc1ccc(S(=O)(=O)N2C[C@@H](C(=O)O)[C@H](SCC(C)C)C[C@H]2c2cccc(Cl)c2)cc1', 'Activity', 79.7),
  ('CCCCCCS[C@@H]1C[C@@H](c2ccc(Cl)cc2)N(S(=O)(=O)c2ccc(C)cc2)C[C@H]1C(=O)O', 'Activity', 72.2),
  ('COc1cc([C@@H]2C[C@@H](SCCc3ccccc3)[C@H](C(=O)O)CN2S(=O)(=O)c2ccc(C)cc2)cc(OC)c1OC', 'Activity', 43.5),
  ('CCc1ccc([C@@H]2CC=C(C(=O)O)[C@H](c3ccc(C(C)(C)C)cc3)N2S(=O)(=O)c2ccc(C)cc2)cc1', 'Activity', 79.7),
  ('Cc1ccc([C@@H]2C[C@@H](SCc3ccccc3)[C@H](C(=O)O)CN2S(=O)(=O)c2ccc(C)cc2)cc1', 'Activity', 93.1);

Value sought for every listed compound: Activity.
1. COc1ccc([C@@H]2CC=C(C(=O)O)[C@H](c3ccc(C(C)(C)C)cc3)N2S(=O)(=O)c2ccc(C)cc2)cc1OC
2. CCCCCCS[C@@H]1C[C@@H](c2ccc(OC)cc2)N(S(=O)(=O)c2ccccc2C)C[C@H]1C(=O)O
3. CCCS[C@@H]1C[C@@H](c2ccc(C)cc2)N(S(=O)(=O)c2ccc(C)cc2)C[C@H]1C(=O)O
4. CCCCCS[C@@H]1C[C@@H](c2ccc(OC)cc2)N(S(=O)(=O)c2ccccc2C)C[C@H]1C(=O)O
5. COc1ccc([C@@H]2CC=C(C(=O)O)[C@H](c3ccc(C(C)(C)C)cc3)N2S(=O)(=O)c2ccc(C)cc2)cc1
6. CCCCCCS[C@@H]1C[C@@H](c2cccc(OC)c2)N(S(=O)(=O)c2ccc(C)cc2)C[C@H]1C(=O)O
7. Cc1ccc(S[C@@H]2C[C@@H](c3cccc(Cl)c3)N(S(=O)(=O)c3ccc(C)cc3)C[C@H]2C(=O)O)cc1

1: 90.4; 2: 72.9; 3: 69.8; 4: 67.1; 5: 91.1; 6: 80.5; 7: 88.8

Value sought for every listed compound: Activity.
1. CCCCCC[C@@H]1[C@@H](Sc2ccc(C)cc2)[C@@H](C(=O)O)[C@H](c2ccc(Cl)cc2)N1S(=O)(=O)c1ccccc1
2. COc1ccc([C@@H]2C[C@@H](SCCC(C)C)[C@H](C(=O)O)CN2S(=O)(=O)c2ccccc2)cc1
3. Cc1ccc(S(=O)(=O)N2[C@@H](c3cccc(F)c3)C(C(=O)O)=CC[C@H]2c2cccs2)cc1
4. COc1ccc([C@@H]2CC=C(C(=O)O)[C@H](c3ccc(C)cc3)N2S(=O)(=O)c2ccc(C)cc2)cc1OC
5. CCCS[C@@H]1C[C@@H](c2ccc(CC)cc2)N(S(=O)(=O)c2ccc(C)cc2)C[C@H]1C(=O)O
6. Cc1ccc(S(=O)(=O)N2[C@@H](c3cccc(F)c3)C(C(=O)O)=CC[C@H]2c2ccc(Cl)cc2)cc1

1. 15
2. 96.7
3. 81.8
4. 89.3
5. 69
6. 76.2
